read-out: TIMP metallopeptidase inhibitor 2 (TIMP2), TIMP2 (gene 7077); experiment: BSK_KF3CT_TIMP2: BioMAP Diversity Plus: KF3CT Assay for TIMP metallopeptidase inhibitor 2 (TIMP2) Biomarker Activity (AID 2283071); settings: primary human keratinocytes with fibroblasts; actives raise or lower the signal
Calls of active or inactive are those of the source. Rule for the calls: active = hit-call score of the fitted dose curve at least 0.9, where 1 is the maximum; inactive = score below 0.9.
Classes used: 1 (yes) (active), 0 (no) (inactive)

* N#Cc1ccc(CC(=NNC(=O)Nc2ccc(OC(F)(F)F)cc2)c2cccc(C(F)(F)F)c2)cc1 | 1 (yes)
* O=C(O)c1cn(-c2ccc(F)cc2)c2cc(N3CCNCC3)c(F)cc2c1=O | 0 (no)
* O=C(O)c1ccc([N+](=O)[O-])cc1 | 0 (no)
* CC(=O)OCCC(C)CC(C)(C)C (stereo not given) | 0 (no)
* OC1OC[C@@H](O)[C@H](O)[C@H]1O (stereo not given in full) | 0 (no)
* C=C(C)C(=O)O[C@H]1C[C@@H]2CC[C@@]1(C)C2(C)C | 1 (yes)
* CC(=O)/C=C/C1=C(C)CCCC1(C)C | 0 (no)
* O=C(O)C[C@H](O)C[C@H](O)/C=C/c1c(C2CC2)nc2ccccc2c1-c1ccc(F)cc1 | 0 (no)
* CNC[C@H](O)c1cccc(O)c1 | 0 (no)
* CC[Si](OC(C)=O)(OC(C)=O)OC(C)=O | 0 (no)
* CCCCCCCCCC=O | 0 (no)
* c1ccc2sc(SN(C3CCCCC3)C3CCCCC3)nc2c1 | 0 (no)
* Cc1cc(C2(c3cc(C)c(O)cc3C)OS(=O)(=O)c3ccccc32)c(C)cc1O | 0 (no)
* O=[N+]([O-])c1cc(C(F)(F)F)ccc1Cl | 0 (no)
* CCCCCCCCC=O | 0 (no)
* CC(C)Oc1ccccc1O | 0 (no)
* O=C1OC2(c3cc(Br)c(O)c(Br)c3Oc3c2cc(Br)c(O)c3Br)c2c(Cl)c(Cl)c(Cl)c(Cl)c21 | 1 (yes)
* OC[C@H]1O[C@H](O[C@]2(CCl)O[C@H](CCl)[C@@H](O)[C@@H]2O)[C@H](O)[C@@H](O)[C@H]1Cl | 0 (no)
* CC(C)c1ccc(C(C)C)cc1 | 1 (yes)
* O=C1CCCCCCCCCCCCCCO1 | 1 (yes)
* NCCNCCN | 0 (no)
* Nc1cc([N+](=O)[O-])ccc1Cl | 0 (no)
* CCC(=O)OCc1ccccc1 | 0 (no)
* CC1COc2ccccc2N1C(=O)C(Cl)Cl (stereo not given) | 0 (no)
* CCc1c(C)cc(N)c(CC)c1N | 0 (no)

Provenance of the data: PubChem BioAssay (EPA / NIEHS)
